Assay: log P by HPLC on reversed-phase column (C 18), EEC Directive 79/831 Annex V.A8
Type: physicochemical
Conditions: reversed-phase HPLC column (C 18), pH 2.7, LC-MS acidic range, pH 2.7, 0.1% formic acid/acetonitrile, 55° C.; read-out: log P (acidic) / log P (HCOOH)
Give measured chromatographic logP for each item. Keep answers brief.
Please give the numeric answer without any surrounding text.

Field request: chromatographic logP | item: CCc1cc(C(F)(F)C(F)(F)F)cc(C)c1-c1cc(NC(=O)C2CC2)nc(C(=O)NCc2ccc(C#N)cc2)c1 [Example I-148]
4.85

Field request: chromatographic logP | item: NC(=O)c1cc(-c2ccc(C(F)(F)C(F)(F)F)c(F)c2)cc(NC(=O)C2CC2)n1 [XXIII-1]
3.18

Field request: chromatographic logP | item: N#Cc1ccc(CNC(=O)c2cc(-c3ccc(OC(F)(F)F)cc3)cc(Cl)n2)cc1 [XVII-1]
4.23

Field request: chromatographic logP | item: N#Cc1ccc(/C=N/NC(=O)c2cc(-c3ccc(OC(F)(F)F)cc3)cc(NC(=O)C3CC3)n2)cc1 [Example I-252]
3.88

Field request: chromatographic logP | item: O=C(NC(=O)C1CC1)c1cc(-c2ccc(C(F)(F)C(F)(F)F)c(F)c2)cc(NC(=O)C2CC2)n1 [Example I-264]
4.62

Field request: chromatographic logP | item: N#Cc1ccc(CNC(=O)c2cc(-n3ccc(C(F)(F)C(F)(F)F)n3)cc(NC(=O)C3CC3)n2)cc1 [Example I-188]
3.7

Field request: chromatographic logP | item: Nc1cc(-c2ccc(Cl)cc2)cc(C(=O)O)n1 [XIX-1]
1.02

Field request: chromatographic logP | item: COC(=O)c1cc(-c2ccc(OC(F)(F)F)cc2)cc(NC(=O)C2CC2)n1 [XXIII-2]
3.63

Field request: chromatographic logP | item: Fc1cc(-c2cc(Cl)nc(Cl)c2)ccc1C(F)(F)C(F)(F)F [XIV-2]
4.92

Field request: chromatographic logP | item: N#Cc1ccc(CNC(=O)c2cc(-c3ccc(OC(F)(F)F)cc3)cc(NC(=O)C3CC3)n2)cc1 [Example I-044]
3.9

Field request: chromatographic logP | item: N#Cc1ccc(CNC(=O)c2cc(-c3ccc(C(F)(F)F)s3)cc(NC(=O)C3CC3)n2)cc1 [Example I-160]
3.73

Field request: chromatographic logP | item: N#Cc1ccc(CNC(=O)c2cc(-c3ccc(C(F)(F)C(F)(F)F)c(F)c3)cc(NC(=O)C3CC3)n2)cc1 [Example I-149]
4.25

Field request: chromatographic logP | item: COC(=O)N(Cc1ccc(C#N)cc1)C(=O)c1cc(-c2ccc(OC(F)(F)F)cc2)cc(N(C(=O)OC)C(=O)C2CC2)n1 [Example I-232]
4.3

Field request: chromatographic logP | item: O=C(O)c1cc(-c2ccc(OC(F)(F)F)cc2)cc(Cl)n1 [XVI-1]
3

Field request: chromatographic logP | item: N#Cc1ccc(CNC(=O)c2cc(-c3ccc(C(F)(F)F)cn3)cc(NC(=O)C3CC3)n2)cc1 [Example I-174]
3.25

Field request: chromatographic logP | item: C=Cc1cc(-c2ccc(OC(F)(F)F)cc2)cc(Cl)n1 [XV-1]
4.77

Field request: chromatographic logP | item: Nc1cc(-c2ccc(C(F)(F)C(F)(F)F)c(F)c2)cc(Cl)n1 [XXI-1]
3.85

Field request: chromatographic logP | item: CNc1cc(-c2ccc(OC(F)(F)F)cc2)cc(C(=O)NCc2ccc(C#N)cc2)n1 [XVIII-1]
3.63

Field request: chromatographic logP | item: N#Cc1ccc(CNC(=N)c2cc(-c3ccc(OC(F)(F)F)cc3)cc(NC(=O)C3CC3)n2)cc1 [Example I-258]
2.08

Field request: chromatographic logP | item: N#Cc1ccc(CNC(=S)c2cc(-c3ccc(OC(F)(F)F)cc3)cc(NC(=S)C3CC3)n2)cc1 [Example I-181]
5.54

Field request: chromatographic logP | item: CN(C(=O)C1CC1)c1cc(-c2ccc(OC(F)(F)F)cc2)cc(C(=O)NCc2ccc(C#N)cc2)n1 [Example I-215]
3.85
